# Test system: Mycobacterium tuberculosis
# Protocol: Antitubercular activity against Mycobacterium tuberculosis H37Rv assessed as […] inhibition after 7 days by broth microdilution assay
# Assay type: functional
# Conditions used: 168 h
# MIC90 annotations
Numbers only here, please. The scale is µM.

                         structure_notation  measured
0          Nc1nccc(-c2c[nH]c3ccc(Br)cc23)n1       111
1  N#Cc1ccc(S(=O)(=O)n2cc(-c3ccnc(N)n3)c3cc(Br)ccc32)cc1      70.6
2  CN1CCN(C(=O)n2cc(-c3ccnc(N)n3)c3cc(Br)ccc32)CC1       155

# ---- query molecule ----
Prompt line: MIC90 lookup needed for `Nc1nccc(-c2cn(Cc3ccc(Cl)s3)c3ccc(Br)cc23)n1` , thanks.
Response line: 76.6
